- Experiment: NCI Yeast Anticancer Drug Screen. Data for the wt2 strain (AID 169)
- Condition details: S. cerevisiae wt2 strain growth inhibition; at 33.0 µM
About 79,000 compounds went through this panel and 15% of them were active in at least one assay; those are over-represented in the sample as a whole. Activity calls are given as the source filed them. Rule as the data show it: active = growth inhibition above about 70%; inactive = the rest.
API: response.call in active, inactive

Please review the following examples before continuing.
CN1CCN(C(=O)c2cccc3cccc(C(=O)O)c23)CC1    inactive
N#CCCC1C(C#N)C2(Cl)CC1(Cl)C(Cl)=C2Cl (centres undefined)    inactive
CCc1c(Cl)c(C)c(Cl)c(O)c1Cl    active
O=CC1(F)CC1(c1ccccc1)c1ccccc1 (centres undefined)    inactive
O=C(O)C(=Cc1ccc(-c2ccccc2)cc1)C(=O)O    inactive
O=C1C2=C(c3ccccc31)C(c1ccccc1)N1C(=O)CSC1=N2 (centres undefined)    inactive

[ask] Write down the call the test reported for this molecule. Item: "NCCOc1ccc(/C(=C(/Cl)c2ccccc2)c2ccccc2)cc1"
[reply] active

[ask] Write down the call the test reported for this molecule. Item: O=C(O)c1ccccc1C(=O)OC1CCc2ccccc2C1 (centres undefined)
[reply] inactive

[ask] Write down the call the test reported for this molecule. Item: NC(=S)N/N=C1\c2ccccc2CCC1CCC1(O)CCc2ccccc2C1=O (centres undefined)
[reply] inactive

[ask] Write down the call the test reported for this molecule. Item: "CCCCCCCN1C(=O)c2ccccc2C1=O"
[reply] inactive

[ask] Write down the call the test reported for this molecule. Item: "O=C(CCCN1CCC(Nc2ccc(F)cc2)(c2nnnn2C2CCCCC2)CC1)c1ccc(F)cc1"
[reply] inactive

[ask] Write down the call the test reported for this molecule. Item: O=S(=O)(c1cccc(C(F)(F)F)c1)N1c2ccccc2-n2cccc2C1c1cccnc1 (centres undefined)
[reply] active

Sourced from PubChem BioAssay (NCI)
